# experimentNotes: Transmittance of transparent cured film
# Assay type: physicochemical
# experimentalContext: cured at exposure energy quantity 80 mJ/cm^2
propertyName: Transmittance (400 nm) Transparent cured film (%)

{"columns": ["compound", "unitLabel", "measured"],
 "data": [
  ["CCCC1(CCC)c2cc(C(=O)/C(C)=N/OC(C)=O)ccc2-c2ccc(C(=O)c3ccc([N+](=O)[O-])cc3)cc21", "%", 96.4],
  ["CCCC1(CCC)c2cc(C(=O)C(CCSc3ccc(Cl)cc3)=NOC(C)=O)ccc2-c2ccc([N+](=O)[O-])cc21", "%", 91.9],
  ["CCCCCCC1(CCCCCC)c2cc(C(=O)C(=NOC(C)=O)c3cc(C)ccc3C)ccc2-c2ccc(C(=O)c3ccc([N+](=O)[O-])cc3)cc21", "%", 97.0],
  ["CCCC1(CCC)c2cc(C(=O)c3ccc([N+](=O)[O-])cc3)ccc2-c2ccc(C(C)=NOC(C)=O)cc21", "%", 96.1],
  ["CCCCCCC1(CCCCCC)c2cc(C(=O)c3ccc([N+](=O)[O-])cc3)ccc2-c2ccc(C(CC(C)N(OC(C)=O)C(C)=O)=NOC(C)=O)cc21 (racemic)", "%", 99.7],
  ["CCn1c2ccc(C(=O)c3ccccc3C)cc2c2cc(/C(C)=N/OC(C)=O)ccc21 [Compound C-1, reference compound]", "%", 98.9],
  ["CCCC1(CCC)c2cc(C(CCCSc3ccc(Cl)cc3)=NOC(C)=O)ccc2-c2ccc([N+](=O)[O-])cc21", "%", 92.7],
  ["CCCC1(CCC)c2cc(C(C)=NOC(C)=O)ccc2-c2ccc([N+](=O)[O-])cc21", "%", 95.2],
  ["CCCC1(CCC)c2cc(C(=O)c3ccccc3C)ccc2-c2ccc(/C(C)=N/OC(C)=O)cc21", "%", 99.4],
  ["CCCCCCC1(CCCCCC)c2cc(C(=O)c3ccc(F)cc3)ccc2-c2ccc(/C(CC(C)N(OC(C)=O)C(C)=O)=N\\OC(C)=O)cc21 (stereo not shown)", "%", 99.4],
  ["CCCCCCC1(CCCCCC)c2cc(C(=NOC(C)=O)c3ccccc3C)ccc2-c2ccc([N+](=O)[O-])cc21", "%", 92.8],
  ["CCCC1(CCC)c2cc(C(=NOC(C)=O)c3ccccc3C)ccc2-c2ccc([N+](=O)[O-])cc21", "%", 92.0],
  ["CCCC1(CCC)c2cc(C(=NOC(C)=O)c3ccccc3)ccc2-c2ccc([N+](=O)[O-])cc21", "%", 91.7]
]}

Origin of measurements: patent US9684238B2
